Measured values drawn from patent US20240116877A1 for this set.

- System: Ba/F3 KIT mutant cells
- protocol summary: Ba/F3 mutant KIT Cell Proliferation Assays (resazurin)
- Assay type: cell-based
- assay context: Mus musculus, BaF3; Ba/F3 KIT AYdup mutant cell proliferation; read-out: AYdup IC50
readout label: IC50

# return IC50 for each item in the list
1. COCCOc1cc(F)c2c(Nc3ccc(NC(=O)CC(=O)NCC(C)(C)C(F)(F)F)cc3)ncnc2c1
2. COCCOc1cc(OC)c2c(Nc3ccc(NC(=O)CC(=O)NC4CCCC4)cc3)ncnc2c1
3. COCCOc1cc(F)c2c(Nc3ccc(NC(=O)CC(=O)N4CCC(C)(C)C4)cc3)ncnc2c1
4. CC(C)(C#N)CCNC(=O)Nc1ccc(Nc2ncnc3cc(OCCN4CCOCC4)cc(F)c23)cc1
5. COCCOc1cc(F)c2c(Nc3ccc(NC(=O)C4(C(=O)N(C)CC(C)(C)C)CC4)cc3)ncnc2c1

Response:
1: ≤ 10 nM; 2: 10 to 100 nM; 3: ≤ 10 nM; 4: ≤ 10 nM; 5: 100 to 1000 nM

Hello, I would appreciate it if you could give IC50 for each entry below.
1. COC(C)(C)CCNC(=O)Nc1ccc(Nc2ncnc3cc(OCCN4CCOCC4)cc(F)c23)cc1
2. COCCOc1cc(F)c2c(Nc3ccc(NC(=O)NCCOC(C)(C)C)cc3)ncnc2c1
3. COCCOc1cc(F)c2c(Nc3ccc(NC(=O)CC(=O)N(C)C(C)(C)C)cc3)ncnc2c1

Response:
≤ 10 nM
≤ 10 nM
≤ 10 nM

Okay, here is my list. What is IC50 for each of these?
1. COCCOc1cc(F)c2c(Nc3ccc(NC(=O)NC4CC(C)(C)C4)cc3)ncnc2c1
2. COCCOc1cc(F)c2c(Nc3ccc(NC(=O)CC(=O)N(C)CC(C)(C)C)cc3)ncnc2c1
3. COCCOc1cc(F)c2c(Nc3ccc(NC(=O)CCN4CCCC4=O)cc3)ncnc2c1
4. COCCOc1cc(F)c2c(Nc3ccc(NC(=O)COCCC(C)C)cc3)ncnc2c1

Response:
["≤ 10 nM", "10 to 100 nM", "100 to 1000 nM", "≤ 10 nM"]

Here are 4 compounds. What values of IC50 were reported for them?
1. CC(C)(F)CCNC(=O)Nc1ccc(Nc2ncnc3cc(OC4CCOCC4)cc(F)c23)cc1
2. COCCOc1cc(F)c2c(Nc3ccc(NC(=O)NCCC4(OC)CC4)cc3)ncnc2c1
3. COCCOc1cc(F)c2c(Nc3ccc(NC(=O)OCCC(C)(C)F)cc3)ncnc2c1
4. CC(C)(F)CCNC(=O)Nc1ccc(Nc2ncnc3cc(OCCN4CCCC4)cc(F)c23)cc1

Response:
1. ≤ 10 nM
2. ≤ 10 nM
3. ≤ 10 nM
4. ≤ 10 nM

* * *

- target or test system: c-KIT kinase (uKIT) (Homo sapiens (Human), UniProt P10721)
- Sequence (P10721 other isoform, or with tags, fused parts or gaps): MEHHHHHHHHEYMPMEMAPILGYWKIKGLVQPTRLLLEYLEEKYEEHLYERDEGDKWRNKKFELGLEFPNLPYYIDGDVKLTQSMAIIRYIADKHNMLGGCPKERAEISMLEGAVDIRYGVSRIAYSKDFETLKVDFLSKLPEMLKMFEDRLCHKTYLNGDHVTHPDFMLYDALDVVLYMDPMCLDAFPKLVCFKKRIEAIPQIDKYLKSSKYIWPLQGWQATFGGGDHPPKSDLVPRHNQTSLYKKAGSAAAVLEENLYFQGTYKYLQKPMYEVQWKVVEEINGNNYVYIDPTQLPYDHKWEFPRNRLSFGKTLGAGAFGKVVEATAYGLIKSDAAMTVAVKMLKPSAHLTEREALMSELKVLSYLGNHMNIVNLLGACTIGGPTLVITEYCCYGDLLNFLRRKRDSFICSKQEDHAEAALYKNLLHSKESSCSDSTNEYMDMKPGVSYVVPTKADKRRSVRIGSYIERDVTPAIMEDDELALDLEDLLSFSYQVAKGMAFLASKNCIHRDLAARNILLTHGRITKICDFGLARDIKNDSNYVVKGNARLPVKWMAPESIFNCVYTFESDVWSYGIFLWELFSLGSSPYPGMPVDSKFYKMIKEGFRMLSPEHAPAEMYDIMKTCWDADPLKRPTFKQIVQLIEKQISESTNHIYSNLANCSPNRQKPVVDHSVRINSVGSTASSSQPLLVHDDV
readout label: IC50

molecule: COCCOc1cc(F)c2c(Nc3ccc(NC(=O)CC(=O)N4C5CCC4CC5)cc3)ncnc2c1 [Example 188]
target or test system: c-KIT kinase (uKIT) (Homo sapiens (Human), UniProt P10721)
experimental value: 0.01 to 0.1 µM

molecule: COCCOc1cc(F)c2c(Nc3ccc(NC(=O)CC(=O)N4CCOCC4(C)C)cc3)ncnc2c1 [Example 154]
target or test system: c-KIT kinase (uKIT) (Homo sapiens (Human), UniProt P10721)
experimental value: 0.01 to 0.1 µM

molecule: COCCCc1ccc2c(Nc3ccc(NC(=O)NCCC(C)(C)F)cc3)cnnc2c1 [Example 190]
target or test system: c-KIT kinase (uKIT) (Homo sapiens (Human), UniProt P10721)
experimental value: 0.01 to 0.1 µM

molecule: COCCOc1cc(F)c2c(Nc3ccc(NC(=O)CC(=O)N4CCC[C@@H]4C(C)C)cc3)ncnc2c1 [Example 214]
target or test system: c-KIT kinase (uKIT) (Homo sapiens (Human), UniProt P10721)
experimental value: 0.01 to 0.1 µM

molecule: COCCOc1cc(F)c2c(Nc3ccc(NC(=O)NCCC4(OC)CC4)cc3)ncnc2c1 [Example 32]
target or test system: c-KIT kinase (uKIT) (Homo sapiens (Human), UniProt P10721)
experimental value: ≤ 0.01 µM

molecule: COCCOc1cc(F)c2c(Nc3ccc(NC(=O)CC(=O)N4CCCC[C@H]4C(F)(F)F)cc3)ncnc2c1 [Example 171]
target or test system: c-KIT kinase (uKIT) (Homo sapiens (Human), UniProt P10721)
experimental value: 0.01 to 0.1 µM

molecule: COCCOc1cc(F)c2c(Nc3ccc(NC(=O)CC(=O)NCCN4CCOCC4)cc3)ncnc2c1 [Example 84]
target or test system: c-KIT kinase (uKIT) (Homo sapiens (Human), UniProt P10721)
experimental value: > 1 µM

molecule: COCCOc1cc(F)c2c(Nc3ccc(NC(=O)NCCC(C)(C)F)nc3)ncnc2c1 [Example 29]
target or test system: c-KIT kinase (uKIT) (Homo sapiens (Human), UniProt P10721)
experimental value: 0.1 to 1 µM

molecule: CN(C)CCOc1cc(F)c2c(Nc3ccc(NC(=O)NCCC(C)(C)C#N)cc3)ncnc2c1 [Example 80]
target or test system: c-KIT kinase (uKIT) (Homo sapiens (Human), UniProt P10721)
experimental value: > 1 µM

molecule: COCCOc1cc(F)c2c(Nc3ccc(NC(=O)CCC(C)(C)OC)cc3)ncnc2c1 [Example 28]
target or test system: c-KIT kinase (uKIT) (Homo sapiens (Human), UniProt P10721)
experimental value: 0.01 to 0.1 µM

I'm hoping you can list IC50 for every molecule here, please.
1. COCCOc1cc(F)c2c(Nc3ccc(NC(=O)CC(=O)N4CCCC(F)(F)C4)cc3)ncnc2c1 [Example 165]
2. COCCOc1cc(F)c2c(Nc3ccc(NC(=O)NC(=O)CC4(C(F)(F)F)COC4)cc3)ncnc2c1 [Example 137]
3. COCCOc1cc(F)c2c(Nc3ccc(NC(=O)NCCC4CCOCC4)cc3)ncnc2c1 [Example 61]
4. COCCOc1cc(F)c2c(Nc3ccc(NC(=O)CC(=O)N4CCC(F)(F)CC4)cc3)ncnc2c1 [Example 164]
5. COCCOc1cc(F)c2c(Nc3ccc(NC(=O)CC(=O)NC4CCCC4)cc3)ncnc2c1 [Example 92]

Response:
["0.01 to 0.1 µM", "0.01 to 0.1 µM", "0.01 to 0.1 µM", "0.01 to 0.1 µM", "≤ 0.01 µM"]

Working through the 4 molecules below one at a time, give IC50 for each.
1. COc1cc(F)c2c(Nc3ccc(NC(=O)NCCC(C)(C)OC)cc3)ncnc2c1 [Example 202]
2. CC(C)(C)CNC(=O)CC(=O)Nc1ccc(Nc2ncnc3cc(OCCN4CCOCC4)cc(F)c23)cc1 [Example 145]
3. COCCOc1cc(F)c2c(Nc3ccc(NC(=O)C(=O)NCC(C)(C)C)cc3)ncnc2c1 [Example 126]
4. COCCOc1cc(F)c2c(Nc3ccc(NC(=O)CC4CCC(C)(C)CC4)cc3)ncnc2c1 [Example 69]

Response:
1: 0.01 to 0.1 µM; 2: 0.01 to 0.1 µM; 3: 0.1 to 1 µM; 4: ≤ 0.01 µM
